Assay remarks: physchem
Experimental setup: 37 °C, pH 1.2, simulated gastric fluid
Observation type: solubility (µg/mL)
Number in µg/mL, nothing else.

Item: COc1ccc(CNc2nnc(N3CCC(O)CC3)c3ccc(C#N)cc23)cc1Cl.Cl [formula (IX)] | solubility: 130

The reported measurements were obtained from patent US6743443B1.
